# systemTested: T1, recombinant human nectin-4 (human, UniProt Q96NY8 32-349)
# T1 chain: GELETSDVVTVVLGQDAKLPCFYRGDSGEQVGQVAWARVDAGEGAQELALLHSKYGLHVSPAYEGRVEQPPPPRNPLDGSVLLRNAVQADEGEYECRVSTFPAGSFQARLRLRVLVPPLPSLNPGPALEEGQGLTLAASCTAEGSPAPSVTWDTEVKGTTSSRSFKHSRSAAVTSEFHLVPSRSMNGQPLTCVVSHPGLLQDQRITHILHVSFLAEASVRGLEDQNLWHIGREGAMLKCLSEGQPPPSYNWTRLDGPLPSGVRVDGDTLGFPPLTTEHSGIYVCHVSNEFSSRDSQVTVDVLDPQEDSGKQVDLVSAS
# testMethodNotes: SPR
pKd: −log10 of the molar value. Numbered stars: 1 amine (or outer) side, 2 acyl side, 3 side chain; on linkers, the order of the positions; unused ones are H or OH. Bridge positions count the residues as written; N and C are the ends. Square brackets hold non-standard residues; d marks the D form. * marks the point of attachment. (R)‑NODAGA = O=C(O)CN1CCN(CC(=O)O)CCN([C@H](CCC(=O)*)C(=O)O)CC1; TATA = O=C(CC[*:1])N1CN(C(=O)CC[*:2])CN(C(=O)CC[*:3])C1; 2Nal = N[C@@H](Cc1ccc2ccccc2c1)C(=O)O; Hyp = O=C(O)[C@@H]1C[C@@H](O)CN1; hArg = N=C(N)NCCCC[C@H](N)C(=O)O
quantity: pKd

[
  {
    "binder": "{(R)‑NODAGA}-CP[2Nal][dD]CM[hArg]DWSTP[Hyp]WC-NH2 (linker 1-5-15 via TATA) [9]",
    "quantity": "pKd",
    "obsValue": 8.55
  }
]
